# studyTarget: ALR (Homo sapiens)
# Construct: Recombinant long form ALR, residues 1 to 205, was purified under native conditions
# Sequence (P55789 whole entry, the tested form may be a part): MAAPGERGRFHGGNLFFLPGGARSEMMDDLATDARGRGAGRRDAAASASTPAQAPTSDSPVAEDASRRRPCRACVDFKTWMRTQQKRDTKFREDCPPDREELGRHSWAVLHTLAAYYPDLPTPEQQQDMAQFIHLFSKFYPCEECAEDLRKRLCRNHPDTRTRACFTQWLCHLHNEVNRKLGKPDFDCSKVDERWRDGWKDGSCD
# protocolDetails: In vitro ALR activity, Amplex Red-HRP assay
measuredParameter: IC50 (µM)
Please respond with the number in µM and leave the unit unwritten.

Task item: Item under review: `Oc1c(Cl)cc(Cl)cc1/C=N/c1ccc(Nc2ccccc2)cc1` . Reported IC50?
Reply: 0.7

---

Target protein (sequence): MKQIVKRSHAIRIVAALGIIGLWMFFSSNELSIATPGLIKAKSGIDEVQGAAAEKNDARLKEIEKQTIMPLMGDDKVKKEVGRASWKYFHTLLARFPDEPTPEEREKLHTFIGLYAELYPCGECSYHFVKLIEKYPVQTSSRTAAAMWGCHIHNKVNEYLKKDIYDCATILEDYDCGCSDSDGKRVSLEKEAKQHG
measuredParameter: IC50 (µM)
State the answer as a number, implicitly in µM.

Task item: Need IC50, item `Oc1c(Cl)cc(Cl)cc1/C=N/c1ccc(Nc2ccccc2)cc1`
Reply: 1.4
